cell viability by entry:
Tested on: NOMO1
Assay: cell viability relative to DMSO control; higher = less cytotoxic
Conditions: RPMI 5 mM glucose + 10% FBS; 48 h; 1.71 µM
Note: unit % is implicit; provide only the numeric part.

1) Cc1c(C(=O)Nc2cccc(C(F)(F)F)c2)cc(-c2ccccc2)n1CCCN1CCOCC1 ... 92.4
2) O=C1NC(=O)/C(=C/c2cccc(C(F)(F)F)c2)S1 ... 93.2
3) CC(=O)O[C@@]12CO[C@@H]1C[C@H](O)[C@]3(C)[C@@H]2[C@H](OC(=O)C4=CC=CC=C4)[C@]5(O)C[C@H](OC(=O)C(O)[C@@H](NC(=O)OC(C)(C)C)C6=CC=CC=C6)C(=C(/[C@@H](O)C3=O)C5(C)C)/C (stereo partly drawn) ... 24.8
4) OC(COC1=C2C(=O)\C=C(/OC2=CC=C1)C([O-])=O)COC3=C4C(=O)\C=C(/OC4=CC=C3)C([O-])=O ... 83.3

# input Using the record for COC[C@H]1OC(=O)C2=COC3=C2[C@@]1(C)\C4=C(\[C@@H]5CC[C@H](O)[C@@]5(C)C[C@H]4OC(C)=O)C3=O , report its cell viability.
# output 109
